# Protocol details: Pharmacokinetic profiling in cynomolgus monkey
# Type: in vivo, male Cynomolgus Monkeys
# Run parameters: male, plasma; cynomolgus monkey sc; 0.5 mg/kg; acidified saline
Measured bioavailability of individual entries
Record the value in %, omitting the unit from your answer.

[
  {
    "Substance smiles": "Cc1cc(C[C@@H](NC(=O)N2CCC(c3cc4ccccc4[nH]c3=O)CC2)C(=O)N2CCC(N3CCC(c4nncn4C)CC3)CC2)cc2cn[nH]c12",
    "Measurement units": "%",
    "bioavailability": 100
  }
]

Consider the record given below.
Challenge: Using the record for Cc1nc[nH]c1C1CCN(C2CCN(C(=O)[C@@H](Cc3cc(C)c4[nH]ncc4c3)NC(=O)N3CCC(c4cc5ccccc5[nH]c4=O)CC3)CC2)CC1 , state its measured bioavailability.
Response given: 100
